Activity values, listed per item
System: Pseudomonas aeruginosa
experiment: Inhibition of Pseudomonas aeruginosa PAM1723 MexAB-OprM assessed as drug level required to decrease MIC of levofloxacin in presence of 0.125% HAS

Example compounds with recorded Activity:
smiles | target-entity | parameter | reading
CC(C)(C)c1csc(NC(=O)c2ccn3c(=O)c(/C=C/c4nnn[nH]4)c(N4CCC[C@@H](OC(=O)NCCC[N+](C)(C)CC(=O)[O-])C4)nc3c2)n1 | Pseudomonas aeruginosa | Activity | 4 µg/mL
CC(C)(C)c1csc(NC(=O)c2ccn3c(=O)c(/C=C/c4nnn[nH]4)c(N4CCC[C@@H](CC(=O)NCC[N+](C)(C)CC(=O)[O-])C4)nc3c2)n1 | Pseudomonas aeruginosa | Activity | 8 µg/mL

# ---- query compound ----
Ask: Value lookup for Activity; key = CC(C)(C)c1csc(NC(=O)c2ccn3c(=O)c(/C=C/c4nnn[nH]4)c(N4CCC/C(=C\C(=O)NCC[N+](C)(C)CC(=O)[O-])C4)nc3c2)n1
Reply: > 16 µg/mL

----------
experiment: Drug level in Sprague-Dawley rat serum at 1.25 mg/kg, iv after 2 hrs
Format: ADME, organism-based
Design: dose 1.25 mg/kg, route intravenous
experimental-parameters: read-out: Activity
parameter: concentration at 2 h (ng/mL)
Your answer is read as ng/mL, so omit the unit and give the number.

Ask: Value lookup for concentration at 2 h; key = CC(C)(C)c1csc(NC(=O)c2ccn3c(=O)c(/C=C/c4nnn[nH]4)c(N4CCC[C@@H](OC(=O)NCC[N+](C)(C)CC(=O)[O-])C4)nc3c2)n1
Reply: 262

----------
experiment: Volume of distribution at steady state (0 to infinity) in cynomolgus monkey at 5 mg/kg, iv
Type: ADME, organism-based, Macaca fascicularis
Parameters: dose 5 mg/kg, route intravenous
experimental-parameters: in vivo, read-out: Vdss
parameter: Vd (L/kg)
Your answer is read as L/kg, so omit the unit and give the number.

Ask: Value lookup for Vd; key = CC(C)(C)c1csc(NC(=O)c2ccn3c(=O)c(/C=C/c4nnn[nH]4)c(N4CCC[C@@H](OC(=O)NCC[N+](C)(C)CC(=O)[O-])C4)nc3c2)n1
Reply: 0.4

----------
experiment: Volume of distribution at steady state (0 to infinity) in cynomolgus monkey at 1 mg/kg, iv
Type: ADME, organism-based, Macaca fascicularis
Parameters: dose 1 mg/kg, route intravenous
experimental-parameters: in vivo, read-out: Vdss
parameter: Vd (L/kg)
Your answer is read as L/kg, so omit the unit and give the number.

Ask: Value lookup for Vd; key = CC(C)(C)c1csc(NC(=O)c2ccn3c(=O)c(/C=C/c4nnn[nH]4)c(N4CCC[C@@H](OC(=O)NCC[N+](C)(C)CC(=O)[O-])C4)nc3c2)n1
Reply: 0.414

----------
experiment: Drug level in cynomolgus monkey serum at 1 mg/kg, iv after 1 hr
Type: ADME, organism-based, Macaca fascicularis
Set-up: dose 1 mg/kg, route intravenous
experimental-parameters: read-out: Activity
parameter: concentration at 1 h (ng/mL)
Your answer is read as ng/mL, so omit the unit and give the number.

Ask: Value lookup for concentration at 1 h; key = CC(C)(C)c1csc(NC(=O)c2ccn3c(=O)c(/C=C/c4nnn[nH]4)c(N4CCC[C@@H](OC(=O)NCC[N+](C)(C)CC(=O)[O-])C4)nc3c2)n1
Reply: 1220

----------
experiment: Mean residential time (0 to infinity) in cynomolgus monkey at 1 mg/kg, iv
Format: ADME, organism-based, Macaca fascicularis
Set-up: dose 1 mg/kg, route intravenous
experimental-parameters: in vivo
parameter: MRT inf (min)
Your answer is read as min, so omit the unit and give the number.

Ask: Value lookup for MRT inf; key = CC(C)(C)c1csc(NC(=O)c2ccn3c(=O)c(/C=C/c4nnn[nH]4)c(N4CCC[C@@H](OC(=O)NCC[N+](C)(C)CC(=O)[O-])C4)nc3c2)n1
Reply: 36.8

----------
experiment: Clearance (0 to infinity) in cynomolgus monkey at 5 mg/kg, iv
Assay type: ADME, organism-based, Macaca fascicularis
Parameters: dose 5 mg/kg, route intravenous
experimental-parameters: in vivo
parameter: clearance (mL/min/kg)
Your answer is read as mL/min/kg, so omit the unit and give the number.

Ask: Value lookup for clearance; key = CC(C)(C)c1csc(NC(=O)c2ccn3c(=O)c(/C=C/c4nnn[nH]4)c(N4CCC[C@@H](OC(=O)NCC[N+](C)(C)CC(=O)[O-])C4)nc3c2)n1
Reply: 10.7

----------
experiment: AUC (0 to infinity) in Sprague-Dawley rat at 5 mg/kg, iv
Type: ADME, organism-based
Design: time infinity, dose 5 mg/kg, route intravenous
experimental-parameters: plasma
parameter: AUC(0-inf) (µg·h/mL)
Your answer is read as µg·h/mL, so omit the unit and give the number.

Ask: Value lookup for AUC(0-inf); key = CC(C)(C)c1csc(NC(=O)c2ccn3c(=O)c(/C=C/c4nnn[nH]4)c(N4CCC[C@@H](OC(=O)NCC[N+](C)(C)CC(=O)[O-])C4)nc3c2)n1
Reply: 3.53

----------
experiment: Drug level in cynomolgus monkey serum at 5 mg/kg, iv after 1 hr
Format: ADME, organism-based, Macaca fascicularis
Design: dose 5 mg/kg, route intravenous
experimental-parameters: read-out: Activity
parameter: concentration at 1 h (ng/mL)
Your answer is read as ng/mL, so omit the unit and give the number.

Ask: Value lookup for concentration at 1 h; key = CC(C)(C)c1csc(NC(=O)c2ccn3c(=O)c(/C=C/c4nnn[nH]4)c(N4CCC[C@@H](OC(=O)NCC[N+](C)(C)CC(=O)[O-])C4)nc3c2)n1
Reply: 7640

----------
experiment: Mean residential time (0 to infinity) in cynomolgus monkey at 5 mg/kg, iv
Format: ADME, organism-based, Macaca fascicularis
Set-up: dose 5 mg/kg, route intravenous
experimental-parameters: in vivo
parameter: MRT inf (min)
Your answer is read as min, so omit the unit and give the number.

Ask: Value lookup for MRT inf; key = CC(C)(C)c1csc(NC(=O)c2ccn3c(=O)c(/C=C/c4nnn[nH]4)c(N4CCC[C@@H](OC(=O)NCC[N+](C)(C)CC(=O)[O-])C4)nc3c2)n1
Reply: 37.5

----------
experiment: AUC (0 to infinity) in cynomolgus monkey at 5 mg/kg, iv
Assay type: ADME, organism-based, Macaca fascicularis
Design: time infinity, dose 5 mg/kg, route intravenous
experimental-parameters: plasma
parameter: AUC(0-inf) (ng·h/mL)
Your answer is read as ng·h/mL, so omit the unit and give the number.

Ask: Value lookup for AUC(0-inf); key = CC(C)(C)c1csc(NC(=O)c2ccn3c(=O)c(/C=C/c4nnn[nH]4)c(N4CCC[C@@H](OC(=O)NCC[N+](C)(C)CC(=O)[O-])C4)nc3c2)n1
Reply: 7890

----------
experiment: AUC (0 to infinity) in Sprague-Dawley rat at 20 mg/kg, iv
Format: ADME, organism-based
Set-up: time infinity, dose 20 mg/kg, route intravenous
experimental-parameters: plasma
parameter: AUC(0-inf) (ng·h/mL)
Your answer is read as ng·h/mL, so omit the unit and give the number.

Ask: Value lookup for AUC(0-inf); key = CC(C)(C)c1csc(NC(=O)c2ccn3c(=O)c(/C=C/c4nnn[nH]4)c(N4CCC[C@@H](OC(=O)NCC[N+](C)(C)CC(=O)[O-])C4)nc3c2)n1
Reply: 14200

----------
experiment: Clearance (0 to infinity) in cynomolgus monkey at 1 mg/kg, iv
Type: ADME, organism-based, Macaca fascicularis
Parameters: dose 1 mg/kg, route intravenous
experimental-parameters: in vivo
parameter: clearance (mL/min/kg)
Your answer is read as mL/min/kg, so omit the unit and give the number.

Ask: Value lookup for clearance; key = CC(C)(C)c1csc(NC(=O)c2ccn3c(=O)c(/C=C/c4nnn[nH]4)c(N4CCC[C@@H](OC(=O)NCC[N+](C)(C)CC(=O)[O-])C4)nc3c2)n1
Reply: 11.2

----------
experiment: Drug level in Sprague-Dawley rat serum at 20 mg/kg, iv after 2 hrs
Format: ADME, organism-based
Set-up: dose 20 mg/kg, route intravenous
experimental-parameters: read-out: Activity
parameter: concentration at 2 h (ng/mL)
Your answer is read as ng/mL, so omit the unit and give the number.

Ask: Value lookup for concentration at 2 h; key = CC(C)(C)c1csc(NC(=O)c2ccn3c(=O)c(/C=C/c4nnn[nH]4)c(N4CCC[C@@H](OC(=O)NCC[N+](C)(C)CC(=O)[O-])C4)nc3c2)n1
Reply: 8040

----------
experiment: Half life in cynomolgus monkey at 5 mg/kg, iv
Assay type: ADME, organism-based, Macaca fascicularis
Parameters: dose 5 mg/kg, route intravenous
experimental-parameters: in vivo
parameter: half-life (min)
Your answer is read as min, so omit the unit and give the number.

Ask: Value lookup for half-life; key = CC(C)(C)c1csc(NC(=O)c2ccn3c(=O)c(/C=C/c4nnn[nH]4)c(N4CCC[C@@H](OC(=O)NCC[N+](C)(C)CC(=O)[O-])C4)nc3c2)n1
Reply: 24.6

Measured values drawn from ChEMBL document CHEMBL1140485 for this set.
